Listed below: IC50 values for each entry.
# experimental.system: Plasminogen (Homo sapiens, UniProt P00747)
# Sequence (P00747 97-580 limits assumed): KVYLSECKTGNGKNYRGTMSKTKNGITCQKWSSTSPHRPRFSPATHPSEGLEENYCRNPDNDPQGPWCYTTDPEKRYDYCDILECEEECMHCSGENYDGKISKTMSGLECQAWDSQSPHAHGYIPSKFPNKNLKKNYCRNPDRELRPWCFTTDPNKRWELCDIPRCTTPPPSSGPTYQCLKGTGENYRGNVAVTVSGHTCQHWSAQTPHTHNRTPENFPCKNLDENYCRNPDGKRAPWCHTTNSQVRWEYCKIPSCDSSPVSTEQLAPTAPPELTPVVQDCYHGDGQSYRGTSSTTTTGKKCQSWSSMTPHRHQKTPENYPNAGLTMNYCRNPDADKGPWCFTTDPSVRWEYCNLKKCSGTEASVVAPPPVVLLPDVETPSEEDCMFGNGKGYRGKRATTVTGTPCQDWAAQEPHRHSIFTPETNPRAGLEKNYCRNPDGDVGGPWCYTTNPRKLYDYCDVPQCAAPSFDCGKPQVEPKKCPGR
# Sequence (P00747 581-810 limits assumed): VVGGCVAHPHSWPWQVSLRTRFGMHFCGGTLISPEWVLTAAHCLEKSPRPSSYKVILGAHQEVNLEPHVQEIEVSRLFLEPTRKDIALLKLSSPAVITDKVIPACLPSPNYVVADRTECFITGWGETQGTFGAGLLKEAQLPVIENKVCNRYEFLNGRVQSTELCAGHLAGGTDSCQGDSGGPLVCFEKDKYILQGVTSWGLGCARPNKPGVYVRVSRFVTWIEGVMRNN
# measurement.protocol: In vitro inhibitory activity was evaluated against thrombolytic enzyme plasmin

Here's what some known entries look like.
molecule	experimental.system	IC50
CCOC(=O)[C@]1(NS(=O)(=O)Cc2ccccc2)CCCN(CC(=O)N[C@H]2CCCN(C(=N)N)[C@@H]2O)C1=O	Plasminogen (Homo sapiens, UniProt P00747)	0.271 µM
N=C(N)N1CCC[C@H](NC(=O)CN2CCC[C@H](NS(=O)(=O)Cc3ccccc3)C2=O)C1O (stereo partly drawn)	Plasminogen (Homo sapiens, UniProt P00747)	> 2.5 µM

As a next step, examine the molecule that follows.
# lookup: IC50 of `CCOC(=O)[C@]1(NS(=O)(=O)Cc2ccccc2)CCCN(CC(=O)N[C@H]2CCCN(C(=N)N)[C@H]2O)C1=O`
> 2.5 µM
